Test system: MS2 coat protein
Experiment: apparent KD of MS2 coat protein; higher = weaker reporter binding
Details: Eterna round: R107; input ligand: arginine 13.2 mM
Test Readout: apparent KD of MS2 coat protein (nM)
Give the quantity in nM, number only.

The sequence listed as UGCUACAUGAGGAUCACCCAUGUGGGUGAUACCAGCAUUCGUUAAUGCCCUUGGCAGCGCAGCCGAACCAUUCAUUCGGCAGAUC [Laxeor] has a reported apparent KD of MS2 coat protein of 36.2

Field apparent KD of MS2 coat protein (entry AACGUGAACGUGGUAUACCCGUGUGCCGAAGGAGCGCCCGAAAGGGCAGGUAGGUCGCGGACGACAUGAGGAUCACCCAUGUUUG ) reads 42

GUAUACAUGAGGAUCACCCAUGUACCAGAAGGAGCGCUGGAAACAGCAGGUAGGUCGCUGGUAGGUCCUCUAUCUAGACGUUCUA [EAA NP+V+V2 #5] yielded apparent KD of MS2 coat protein of 28.1

The sequence listed as GGGCAAGAGGGAAGGAGCGUCAGCUGAGUAACAUGAGGAUCACCCAUGUAGCACAUAGUGUGACAGGUAGGUCGCCCUCUGCCCU [SS-ArgB6] shows apparent KD of MS2 coat protein equal to 12.6

Lab book: apparent KD of MS2 coat protein of UGUAUGUGAUCUGAUACCAGUCCAACUGGUAAAACCUGAGGAACACCCAGGUAAAAUUGGGACCCUUGGCAGCAGAUCGCAUACU noted as 99.5

Summary for this sequence, GCGGACAUGAGGAUCACCCAUGUAAAUCCUCGAGGACCGGUACGGCCGCCACUCGAACGAGUGGCACGCGAGUGCGCACUCGCGU [aDa] : apparent KD of MS2 coat protein is 21.8

Record GUCGCUGAGGGAAGGAGCGUGAAGACAUGAGGAUCACCCAUGUAGAGGCGCCGAAGGCGUUCGCAGGUAGGUCGCCCUCAGUGAA [#1 Same State - Arginine B Attempt #25 (HarryS)] , field apparent KD of MS2 coat protein: 12.4

CGUCAACAUGAGGAUCACCCAUGUUUCGAUACCAGUGACCCUCUCCACCCUUGGCAGCGAGCGCCCGCGCCUGAUAAAUCUUCUA [theeternabot_sameState_MS2_Theo_A_18] has a reported apparent KD of MS2 coat protein of 13.5

GET /value?item= GAUACCAUGAUCCUCCUGGUAUCGGCUGAUACCAGCCAGCUGACUGGCCCUUGGCAGCAGCAUACAUGAGGAUCACCCAUGUUAA [(T)''-(M)'-(T)'-(Theo)-(Ms2)_Design4] &field=apparent KD of MS2 coat protein returns 35.4

For this sequence ( AUACAUGAGGAUCACCCAUGUUAUAGUGAAGGAGCGACAUUUAGGUCAGGUAGGUCGCACUAUAGUAUUAUAAUUCUUAGUUCUU [JR_ExcArginiA_Sub018] ), measured apparent KD of MS2 coat protein is 14.7

Measured apparent KD of MS2 coat protein of AUAACAUGAGGAUCACCCAUGUAAGCUGAAGGAGCGGACGAAAGUCCAGGUAGGUCGCAGCGUUCCUUCACCUCAUGAGAAGGAG [SSArg-A #30 with U all better] : 17.8

Value of measured apparent KD of MS2 coat protein for the entry UGUAACAUGAGGAUCACCCAUGUGAGUGAUACCAGAUUAGUAUUAGUCCCUUGGCAGCACGUUGGGCGAGUGUAUAGUCUAUGCG [Same State - Theophylline A (Freestyle 13)] : 90.9

###

Provide the reported apparent KD of K4 kissing-loop reporter of each item.
Tested on: K4 kissing-loop RNA reporter;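 further: bound reporter read as fluorescence of individual clusters on recovered sequencing chips by microscopy, with normalized cluster intensities fitted with a binding model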
Experiment: apparent KD of K4 kissing-loop reporter; higher = weaker reporter binding
Settings: Eterna round: R107; input ligand: FMN 200 uM
The response must be a number in nM with no trailing unit.

Reported apparent KD of K4 kissing-loop reporter of UAUGGUCCAUCAAGAGUAGUGAUGUUAUAACGAGGACCGGUACGGCCGCCACUCGAGGCCGUAAUACUCGAUCGGAUGCUGAGUG [theeternabot_exclusion_KL_Trp_A_28] : 815

Query GGCGAUGAGUGAUGUUCAAAGAAUAAUGAUACCAGCUGAUGUCGAAGCCCUUGGCAGCAUAGAUACACCAAGUGAUGGUAAUGCC [Default title] yields apparent KD of K4 kissing-loop reporter of 193

Recorded apparent KD of K4 kissing-loop reporter (sequence AAAUUUUCAAGUGAUACCAGACAUCUCUAUUACAUUAAUAUAGCUAAGUGAUGUUUAGCAGUCCCUUGGCAGCACAAUUUAAUUA [JR_SSTheophyB_Sub013] ): 255

Sure, the documented apparent KD of K4 kissing-loop reporter for AGACUACCACACUGUCAAUAGACAGUGGACUAGGAUAUGCUGAUAAGCAGAAGGAGUGAUGUUCCUAGGUAGUCAAUAAAAUAAU [FmnAX 13 G28] is 357

Looking up GGUGCUGGCCAGUGAUGUUGGCGAAUACUGAAGGAUAUGAUAGGCGUCAGAAGGUCAAGAGUAAUAUCUAGAAUGAAUAGUGAUA [theeternabot_sameState_KL_FMN_A_38] , I see its apparent KD of K4 kissing-loop reporter listed as 296

Record UGAUUUAACUGAAGGAGCGGCAAUUGAUAAGUAAAUAUAGUGAUGUUAUAUAAGAUAGAGAGCCAGGUAGGUCGCAGAGGUAGGA [ExArgB.K] . Reported apparent KD of K4 kissing-loop reporter: 193

###

Field: apparent KD of MS2 coat protein. Provide a value for each of the sequences that follow.
Test system: MS2 coat protein
Test: apparent KD of MS2 coat protein; higher = weaker reporter binding
Details: Eterna round: R107; input ligand: tryptophan 2.4 mM
Dear colleague, please return just the value in nM, with no unit written.

Form field apparent KD of MS2 coat protein, entry AUCGUACCUGAGGAUACCAGCAUGUGAUCAUAACAUGAGGAUCACCCAUGUAAUCAGUGAUGCCCUUGGCAGCUUGGUCGGUACA [Same State - Theophylline B (Freestyle 10)] : 44.2

Field apparent KD of MS2 coat protein (entry AAUUCCUAACAUGAGGAUCACCCAUGUGAAGGAGCGCGGAAUAACGCAGGUAGGUCGCACAUGGAACCGCUGCGAUAGCAGCAAA [MAT - Exclusion Arginine A - Mod of Eli - D29] ) reads 12.5

Reported apparent KD of MS2 coat protein ( AAACGUUGCUGCGAUACCAGACAUGAGGAUCACCCAUGUACCAAGGUACGAAUAUAACAUGUCCCUUGGCAGCGCAGCAACGAAA [MAT - Exclusion Theophlline B - Mod of Eli - D7] ) = 13.6

For this sequence ( CGGCCCUCACUUGAGGAUCACCCAAGUGAUACCAGCCUGGAAACAGGCCCUUGGCAGCACUAGGUCAUCAAAGAUGACCAAGCCG [TheoAX 28 #OpenEnded #AlternativeMS2] ), measured apparent KD of MS2 coat protein is 13.4

Entry AAUAUAAAAUAAAGAAAAUUUAUAUCUGAUACCAGACUCUCAUGGGUCCCUUGGCAGCAGUAACAUGAGGAUCACCCAUGUAUUA [JR_Nu_SSTheophyA_Sub026] , apparent KD of MS2 coat protein reported as 123

apparent KD of MS2 coat protein for GUACAUGAGGAUCACCCAUGUAUAGUUGAAGGAGCGACCAGAGGGUCAGGUAGGUCGCAGCACAUGAGGUAAGCCCGUGUAUGCU [#1 Exclusion - Arginine A Attempt #19 (Inspired by Pi)] is 32

Form: sequence = AAAAUAAAGGCGGCCGCCACUAGAGUUAGGCUUAUGUACUGGGUAACAUGAGGAUCACCCAUGUAUAGGACCGGGCCAUAAUAAA [Same State - Tryptophan B (Freestyle 2)] ; apparent KD of MS2 coat protein = 66.5

apparent KD of MS2 coat protein recorded for this sequence, UUACAUGAGGAUCACCCAUGUCAUACAGAAGGAGCGUCACAUAAGACAGGUAGGUCGCUGUUAUAUCAUACUAUUAUAUCCUCUA [JR_Nu_ExcArginiA_Sub028] , is 33

Recorded result, AAACCAAGGGAUGGGUGCCUUGGUAGUGAUACCAGCCUGGAAACAGGCCCUUGGCAGCACAUGAGGAUCACCCAUGUGAAAUAAU [TheoAX 18#OpenEnded] , apparent KD of MS2 coat protein: 46.6

Entry GAGUUCCUGAGAGAUACCAGUGAAGCCACAUGAGGAUCACCCAUGUCCCUCACUCCGGCCCACCCUUGGCAGCUCGAAAGAUGGA [Exclusion Theophylline B GF 21] — recorded apparent KD of MS2 coat protein = 141

So, AACUGGAAAAGUGAUACCAGAGACAUGAGGAUCACCCAUGUACAUGAGGAUCACCCAUGUCUCCCUUGGCAGCACAAAAGGGAGA [Exclusion Theophylline B Gf11] ? Its apparent KD of MS2 coat protein was 24.5

sequence UUUACCGACACAGAUCACUAAAACCUUGAUACCAGUCCCAGUGGCGACCCUUGGCAGCAAUAUACAUGAGGAUCACCCAUGUGCA [theeternabot_exclusion_MS2_Theo_A_1] , apparent KD of MS2 coat protein observed: 13.8

apparent KD of MS2 coat protein reading for UUAUAAGCACCUGAUACCAGUAUGAACCCGUACAUGAGGAUCACCCAUGUUAAUUUCUAUUACCCUUGGCAGCAGCCUUUUUCCU [theeternabot_sameState_MS2_Theo_B_2] : 21.7

Quick note, apparent KD of MS2 coat protein for ACAUCCAGGUUAAUCGUGGGCAUACUCGAUACCAGUAUUUUAAUCUACCCUUGGCAGCGACAUGAGGAUCACCCAUGUGCGAUGA [XTheo A #12] landed at 13.4

Sample UGGGAAGGAGGAAGGAGCGCCAUAAGGGUGACAGUCUGGGUACAUGAGGAUCACCCAUGUAGGCAGGUAGGUCGCCUAGCUCUCA [XArg-B16] ; apparent KD of MS2 coat protein observed: 9.56

Item: AGAAUACAUGUUUUAAUACGGAAAACUGAUACCAGUGUAUCUAUUCACCCUUGGCAGCAGAGACAUGAGGAUCACCCAUGUAUUA [JR_Nu_SSTheophyA_Sub019] | apparent KD of MS2 coat protein: 46.6

Looking up CUUGGUAGAUCCUAGCUGCCAAGAGGUGAUACCAGCAUCGAAAGAUGCCCUUGGCAGCACCAACAUGAGGAUCACCCAUGUAAUA [(MT)''-(M)'-(T')-(Theo)-(Ms2)_Design1/22_4] , I found its apparent KD of MS2 coat protein recorded as 77.4

sequence UGACAUUGCUGCGAUACCAGACAUGAGGAUCACCCAUGUACCAAGGUAAGAAAAUAACAUGUCCCUUGGCAGCGCAGCAAUGUCU [MAT - Exclusion Theophlline B - Mod of Eli - D1] , apparent KD of MS2 coat protein observed: 14.4

Note to self: apparent KD of MS2 coat protein recorded for UGUGGGUCCGAAGAUACCAGCCAGCACAGCAUGUGUUUAAACAUGAGGAUCACCCAUGUCGGCCCUUGGCAGCUUGGUUUGGACG [theeternabot_exclusion_MS2_Theo_B_7] was 15.8

Data point: UUAAUCAUUAUAGAAAACUAUAAUGCAGAAGGAGCGUGAUAAAACACAGGUAGGUCGCUGAAGGGAACAUGAGGAUCACCCAUGU [AstrosSSArgA#6] ; apparent KD of MS2 coat protein = 28.8

Short answer for UAUCGUCAGACGGCCGCCACUAGAACAUGAGGAUCACCCAUGUACGGCCGCCCGGUGUGAUCCACUAGGACCGGGUCUGACGAAU [(Trp1)-(Ms2)-(T)'-(M)'-(Trp2)_Design23] : apparent KD of MS2 coat protein was 53.8
